- STUDY_TARGET: T1, human MSLN antigen (human, UniProt Q13421 296-580, limits assumed)
- T1 construct: Soluble antigen for BLI; also called Mesothelin; MESO
- T1 sequence (Q13421 other isoform, or with tags, fused parts or gaps limits assumed): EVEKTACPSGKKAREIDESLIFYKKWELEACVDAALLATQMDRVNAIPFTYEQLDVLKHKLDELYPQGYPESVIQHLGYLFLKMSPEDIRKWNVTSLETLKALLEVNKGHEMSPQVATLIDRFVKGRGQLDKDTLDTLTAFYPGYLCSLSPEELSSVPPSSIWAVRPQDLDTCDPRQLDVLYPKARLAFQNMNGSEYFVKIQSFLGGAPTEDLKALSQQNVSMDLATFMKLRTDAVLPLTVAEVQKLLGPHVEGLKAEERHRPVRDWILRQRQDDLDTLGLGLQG
- PROTOCOL_NOTES: MSLN KD of the binding domain (Octet BLI, Example 2B(a)); quoted in Example 3B(a)
REPORTED_ENDPOINT: Kd (nM)
Give bare numbers, in nM.

• MESO-C[MSLN]_H1.3_L1 (Fab, V domains shown, It was tested as the Fab arm(s) of anti-MSLN x anti-CD3 bsAbs) VH: QVQLVQSGAEVKKPGASVKVSCKASGYTFTSYWMHWVRQAPGQGLEWMGWIHPNSDNTIYYEKFQGRVTMTVDKSISTAYMELSRLRSDDTAVYYCAIIITPVVPKFDYWGQGTLVTVSS VL: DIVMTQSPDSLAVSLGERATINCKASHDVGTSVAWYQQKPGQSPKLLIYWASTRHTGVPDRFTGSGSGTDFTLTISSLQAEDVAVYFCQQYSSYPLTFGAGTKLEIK = 9.2
• MESO-C[MSLN]_H1_L1.9 (Fab, V domains shown, It was tested as the Fab arm(s) of anti-MSLN x anti-CD3 bsAbs) VH: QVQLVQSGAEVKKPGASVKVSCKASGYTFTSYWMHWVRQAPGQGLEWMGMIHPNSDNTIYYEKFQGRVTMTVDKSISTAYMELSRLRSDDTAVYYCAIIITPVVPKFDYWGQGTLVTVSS VL: DIVMTQSPDSLAVSLGERATINCKASHDVGTSVAWYQQKPGQSPKLLIYWASTRHTGVPDRFTGSGSGTDFTLTISSLQAEDVAVYFCQQYYSYPLTFGAGTKLEIK = 3.9

Turning to the following binder.
stdin: Write down Kd measured for item MESO-C[MSLN]_H1.12_L1.9 (Fab, V domains shown, It was tested as the Fab arm(s) of anti-MSLN x anti-CD3 bsAbs) VH: QVQLVQSGAEVKKPGASVKVSCKASGYTFTSYWMHWVRQAPGQGLEWMGMIHPNSDNTIYYQKFQGRVTMTVDKSISTAYMELSRLRSDDTAVYYCAIIITPVVPKFDYWGQGTLVTVSS VL: DIVMTQSPDSLAVSLGERATINCKASHDVGTSVAWYQQKPGQSPKLLIYWASTRHTGVPDRFTGSGSGTDFTLTISSLQAEDVAVYFCQQYYSYPLTFGAGTKLEIK
stdout: 10.2
